Target: Klotho β (KLB) (Homo sapiens)
Construct: expressed in transfected cells; host or cells: HEK 293T (ATCC), pooled Zeocin-selected cells stably expressing hKLB from pcDNA3.1(+)
Sequence (Q86Z14 1-1044): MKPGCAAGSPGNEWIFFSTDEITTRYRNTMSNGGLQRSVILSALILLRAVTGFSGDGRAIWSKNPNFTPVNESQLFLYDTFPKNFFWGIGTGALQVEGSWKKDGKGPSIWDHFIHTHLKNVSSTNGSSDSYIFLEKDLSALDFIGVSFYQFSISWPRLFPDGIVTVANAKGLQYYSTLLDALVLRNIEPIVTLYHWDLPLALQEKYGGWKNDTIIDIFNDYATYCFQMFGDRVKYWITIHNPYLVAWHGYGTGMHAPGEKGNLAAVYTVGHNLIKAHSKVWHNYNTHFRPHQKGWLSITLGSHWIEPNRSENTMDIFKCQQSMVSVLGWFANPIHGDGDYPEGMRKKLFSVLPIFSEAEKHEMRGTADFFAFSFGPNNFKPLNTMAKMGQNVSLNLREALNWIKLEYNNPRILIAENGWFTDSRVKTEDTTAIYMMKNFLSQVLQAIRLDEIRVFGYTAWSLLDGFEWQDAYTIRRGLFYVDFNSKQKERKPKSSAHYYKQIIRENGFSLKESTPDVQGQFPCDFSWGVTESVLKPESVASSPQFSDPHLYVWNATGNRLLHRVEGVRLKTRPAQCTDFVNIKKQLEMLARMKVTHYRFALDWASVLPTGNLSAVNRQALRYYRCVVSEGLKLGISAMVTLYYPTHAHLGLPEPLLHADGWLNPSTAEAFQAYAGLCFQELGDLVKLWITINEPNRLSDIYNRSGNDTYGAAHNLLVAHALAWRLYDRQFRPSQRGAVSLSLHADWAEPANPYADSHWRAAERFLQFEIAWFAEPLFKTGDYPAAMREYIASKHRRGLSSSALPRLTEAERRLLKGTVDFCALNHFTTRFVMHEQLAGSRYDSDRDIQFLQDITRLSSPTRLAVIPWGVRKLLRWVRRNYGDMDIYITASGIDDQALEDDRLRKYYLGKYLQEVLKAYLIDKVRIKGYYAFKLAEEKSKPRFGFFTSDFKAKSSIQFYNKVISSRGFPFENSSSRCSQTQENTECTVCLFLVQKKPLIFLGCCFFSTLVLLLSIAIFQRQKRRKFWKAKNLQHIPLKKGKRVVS
Assay: cell-based
Assay type: cell-based
Conditions: Table 2(A), FGF21 157-181 alanine mutants, ≥95% maximal activity
pIC50: −log10 of the molar value. No end group written: not given here.
Listed here: items and their measured pIC50.
quantity: pIC50

INSERT INTO assay_data (substance, reported) VALUES
  ('PPDVGSSDPLSMVGPSQARSPSYAS-NH2 (C-terminus assumed) [Peptide A18, PPDVGSSDPLSMVGPSQARSPSYAS]', 6.82),
  ('PPDVGSSDPLAMVGPSQGRSPSYAS-NH2 (C-terminus assumed) [Peptide A11, PPDVGSSDPLAMVGPSQGRSPSYAS]', 6.82),
  ('PPDVGSSDPLSMVGASQGRSPSYAS-NH2 (C-terminus assumed) [Peptide A15, PPDVGSSDPLSMVGASQGRSPSYAS]', 6.92),
  ('PPDVGSSDPLSMVGPSAGRSPSYAS-NH2 (C-terminus assumed) [Peptide A17, PPDVGSSDPLSMVGPSAGRSPSYAS]', 6.89),
  ('PPDVGSSDPLSMVAPSQGRSPSYAS-NH2 (C-terminus assumed) [Peptide A14, PPDVGSSDPLSMVAPSQGRSPSYAS]', 6.89);

====

Listed here: items and their measured Emax.
Biological target: Klotho β (KLB) (Homo sapiens, UniProt Q86Z14)
Construct: expressed in transfected cells; host or cells: HEK 293T (ATCC), pooled Zeocin-selected cells stably expressing hKLB from pcDNA3.1(+)
Assay: cell-based
Format: cell-based
Settings: Table 1; native sequence = 100% response; read-out: % max activity
No end group written: not given here.
quantity: Emax (%)

INSERT INTO assay_data (substance, target_desc, unit_label, reported) VALUES
  ('PPAVGSSDPLSMVGPSQGRSPSYAS-NH2 (C-terminus assumed) [Peptide A3, PPAVGSSDPLSMVGPSQGRSPSYAS]', 'Klotho β (KLB) (Homo sapiens, UniProt Q86Z14)', '%', 87.8),
  ('APDVGSSDPLSMVGPSQGRSPSYAS-NH2 (C-terminus assumed) [Peptide A1, APDVGSSDPLSMVGPSQGRSPSYAS]', 'Klotho β (KLB) (Homo sapiens, UniProt Q86Z14)', '%', 100),
  ('PPDVGSSDPLSMVGPSQGASPSYAS-NH2 (C-terminus assumed) [Peptide A19, PPDVGSSDPLSMVGPSQGASPSYAS]', 'Klotho β (KLB) (Homo sapiens, UniProt Q86Z14)', '%', 100),
  ('PPDVGSSDPLSMVGASQGRSPSYAS-NH2 (C-terminus assumed) [Peptide A15, PPDVGSSDPLSMVGASQGRSPSYAS]', 'Klotho β (KLB) (Homo sapiens, UniProt Q86Z14)', '%', 93.9),
  ('PPDVGSADPLSMVGPSQGRSPSYAS-NH2 (C-terminus assumed) [Peptide A7, PPDVGSADPLSMVGPSQGRSPSYAS]', 'Klotho β (KLB) (Homo sapiens, UniProt Q86Z14)', '%', 94.5),
  ('PPDVGSSDPLSMAGPSQGRSPSYAS-NH2 (C-terminus assumed) [Peptide A13, PPDVGSSDPLSMAGPSQGRSPSYAS]', 'Klotho β (KLB) (Homo sapiens, UniProt Q86Z14)', '%', 87.9);

====

Listed here: items and their measured pIC50.
Biological target: Klotho β (KLB) (Homo sapiens)
Construct: expressed in transfected cells; host or cells: HEK 293T (ATCC), pooled Zeocin-selected cells stably expressing hKLB from pcDNA3.1(+)
Test: cell-based
Assay type: cell-based
Conditions: Table 6, derivatives of SEQ ID NO: 180
pIC50: −log10 of the molar value. No end group written: not given here.
quantity: pIC50

INSERT INTO results (substance, target_desc, quantity, reported) VALUES
  ('PPDVGSMDPFGLVGPSQGRSPSFEA-NH2 (C-terminus assumed) [Peptide 0431]', 'Klotho β (KLB) (Homo sapiens)', 'pIC50', 8.15),
  ('PPDVGSSDPFGLVGPSQGRSPSFEA-NH2 (C-terminus assumed) [Peptide 0486]', 'Klotho β (KLB) (Homo sapiens)', 'pIC50', 8.33),
  ('PPDVSSMDPFGLVGPSQGRSPSFEA-NH2 (C-terminus assumed) [Peptide 0482]', 'Klotho β (KLB) (Homo sapiens)', 'pIC50', 8.52),
  ('PPDVLSMDPFGLVGPSQGRSPSFEA-NH2 (C-terminus assumed) [Peptide 0481]', 'Klotho β (KLB) (Homo sapiens)', 'pIC50', 8.59),
  ('PPDVGSMDPFGLVGRSQGRSPSFEA-NH2 (C-terminus assumed) [Peptide 0470]', 'Klotho β (KLB) (Homo sapiens)', 'pIC50', 8.31),
  ('PPDVFSMDPFGLVGPSQGRSPSFEA-NH2 (C-terminus assumed) [Peptide 0480]', 'Klotho β (KLB) (Homo sapiens)', 'pIC50', 8.59);

====

Listed here: items and their measured % max activity.
Target: Klotho β (KLB) (Homo sapiens)
Construct: expressed in transfected cells; host or cells: HEK 293T (ATCC), pooled Zeocin-selected cells stably expressing hKLB from pcDNA3.1(+)
Assay: cell-based
Format: cell-based
No end group written: not given here.
quantity: % max activity (%)

INSERT INTO results (substance, quantity, reported) VALUES
  ('PPDVGSSDPLSMVGPSAGRSPSYAS-NH2 (C-terminus assumed) [Peptide A17, PPDVGSSDPLSMVGPSAGRSPSYAS]', '% max activity', 99.7),
  ('PPDVASSDPLSMVGPSQGRSPSYAS-NH2 (C-terminus assumed) [Peptide A5, PPDVASSDPLSMVGPSQGRSPSYAS]', '% max activity', 102.5),
  ('PPDVGSSDPLSMVAPSQGRSPSYAS-NH2 (C-terminus assumed) [Peptide A14, PPDVGSSDPLSMVAPSQGRSPSYAS]', '% max activity', 97.7),
  ('PPDVGSSDPLSMVGPSQGRSPSYAA-NH2 (C-terminus assumed) [Peptide A25, PPDVGSSDPLSMVGPSQGRSPSYAA]', '% max activity', 99.0),
  ('PPDVGSSDPLSMVGPSQGRSPSYAS-NH2 [Peptide C25, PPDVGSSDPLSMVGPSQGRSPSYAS, reference compound]', '% max activity', 100.0),
  ('PPDVGSSDPLSMVGPSQGRSPSAAS-NH2 (C-terminus assumed) [Peptide A23, PPDVGSSDPLSMVGPSQGRSPSAAS]', '% max activity', 73.6),
  ('PPDVGSSDPLSMVGPSQARSPSYAS-NH2 (C-terminus assumed) [Peptide A18, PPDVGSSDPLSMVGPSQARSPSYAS]', '% max activity', 102.9);
